tested on: SW-620 colon; assay: NCI-60 one-dose screen, 48 h (100 = growth as untreated, 0 = no growth, -100 = all killed); details: 10 µM unless noted
Compounds without any hit were thinned out: in the full panel of roughly 83,000, 20% have a hit.
test.readout: growth (%)

1. COc1ccc(C(=O)c2c(N)c(C#N)cn2-c2ccc([N+](=O)[O-])cc2)cc1: 105
2. O=C(N/N=C/c1ccoc1)c1[nH]c2ccc(Br)cc2c1-c1ccccc1: -83.6
3. COC(=O)c1cc(C(=O)C(F)(F)F)n2c3ccccc3c3ccccc3c12: 83.9
4. Cc1cc(C)c2[nH]c(=O)c(C(c3nnnn3Cc3ccc4c(c3)OCO4)N3CCN(C)CC3)cc2c1 (stereo unspecified): 110
5. O=C1c2cccc3c(N4CCN(Cc5ccccc5)CC4)ccc(c23)C(=O)N1c1cccc(-c2nn(-c3ccccc3)cc2-c2nc3ccccc3s2)c1: 101
6. COc1ccc(-c2nc3ccc(-c4nnc(SCc5ccccc5)o4)cc3[nH]2)cc1: 7.51
7. CCN1C(=O)N(CC)C2NNC(Sc3c(C(=O)O)c4ccccc4n(CC(C)C)c3=O)=NC21 (stereo unspecified): 30.5
8. CC(C)(C)OC(=O)N1CCC2(CC1)Oc1ccccc1[C@H]1CC(c3ccc(Br)cc3)=NN12: 83
9. Clc1ccccc1Nc1nnc(-c2c[nH]c3ccccc23)o1: 29
10. COc1cccc2nc(Nc3cccc(NC(=O)c4ccc(CN5CCN(C)CC5)c(C(F)(F)F)c4)c3)ccc12: -92.8
11. COc1cc(C2CC(c3ccc(F)cc3)=Nc3c(N)nc(N)nc3N2)ccc1Oc1nc(Nc2ccc(F)cc2)nc(N(C)C)n1 (stereo unspecified): 31.8
12. COc1ccc(/C=C/c2nc3ccccc3c(=O)n2CC(=O)Nc2ccccc2)cc1: 61.6
13. FC(F)(F)c1cc2c(Cl)ncnc2n1CCC1CCOCC1: 35
14. O=C1Nc2ccccc2/C1=C\c1ccc(OCC(=O)c2ccc(Br)cc2)cc1: 78.1
15. COc1sc(/C=N/NC(=O)c2[nH]c3ccc(Br)cc3c2-c2ccccc2)cc1Cl: -33.8
16. FC(F)(F)c1cc2c(Cl)ncnc2n1CCN1CCCCC1: 34
17. CS(=O)(=O)Nc1cccc(-n2cnc3cc(-c4ccc(O)cc4)ccc32)c1: 46.2
18. COc1ccc(C(=O)C[n+]2cccc3c4ccccc4ccc32)cc1: 36.4
19. Cc1cnc2ccc(Oc3ccccc3-c3ccccc3)nn12: 124
20. O=C(/C=C1\C(=O)N(Cc2ccccc2)c2ccccc21)c1cc2ccccc2oc1=O: 24.2
21. Cc1ccc(Cl)cc1NC(=O)Nc1nc2ccc([N+](=O)[O-])cc2s1: -21.9
22. O=C(NNC(=O)c1ccc(OCc2nc3ccc(Cl)cc3[nH]2)cc1)Nc1ccc(Cl)c(C(F)(F)F)c1: 65
23. O=CNc1cccc(-n2cnc3cc(-c4ccc(O)cc4)ccc32)c1: 46.3
24. Oc1cncc(-c2ccc3ncnc(N4CCc5cc(F)c(Cl)cc54)c3c2)c1: 62.8
25. Cc1ccc(S(=O)(=O)Nc2ccc(-c3ccc4c(c3)NC(=O)/C4=C\c3ccc[nH]3)cc2)cc1: 47.2
26. CC1=NN(C2=NC(=O)C(CC(=O)Nc3ccccc3C(F)(F)F)S2)C(c2ccc(N(C)C)cc2)C1 (stereo unspecified): 60.5
